Test system: CCRF-CEM leukemia
Assay: NCI tumour cell line growth inhibition, 48 h; in the data active means GI50 below about 0.43 µM; inactive means the rest
Outcomes: True for active, False for inactive

Cc1nn(-c2ccccc2)c2c1CC(=O)Nc1ccccc1-2 : True
C=C(C)[C@@H]1CC[C@]2(C(=O)NCCNCCNCCN)CC[C@]3(C)[C@H](CC[C@@H]4[C@@]5(C)CC[C@H](O)C(C)(C)[C@@H]5CC[C@]43C)[C@@H]12 : False
Cc1ccc(/C=C2/SC(Nc3nc(-c4nc(NC5=NC(=O)/C(=C\c6ccc(C)cc6)S5)sc4C)c(C)s3)=NC2=O)cc1 : False
Cn1ccc2c(c1=O)C(=O)c1nccc3c1c-2nc1ccccc13 : False
CC(C)C[C@H](NC(=O)[C@H]1O[C@@H]1C(=O)O)C(=O)NCCc1ccc(O)cc1 : False
C=C(C)C(=O)OC1CC2=CC(CC3(C)OC3C3OC(=O)C(=C)C13)OC2=O (stereo not given) : False
CC1=CCC(OC(=O)C(C)(C)CCC(O)(C(=O)OC2(C(C)C)CCC3(C)OC3C2)C(C)C)(C(C)C)CC1 (stereo not given) : True
C=CC1=C[C@@H]2[C@@H]3O[C@]4(CC[C@H](O4)[C@@H](C)C[C@@H](O)C3=O)C[C@H](O)C3=NCC[C@@]32CC1 : True
Cn1c(=O)c(Oc2ccc(F)cc2F)cc2cnc(NC(CO)CO)nc21 : False
O=C(CCCCCCSc1nc(-c2ccccc2)cc(-c2ccccc2)n1)NO : False
O=Cc1cn(Cc2cccc(Cl)c2)c2ccccc12 : False
C=CC(=O)N1CCN(c2nc(OC[C@@H]3CCCN3C)nc3c2CCN(c2cccc4cccc(C)c24)C3)C[C@@H]1CC#N : False
CCN1CCN(CC(=O)Nc2nc3ccc(NCc4ccc(Cl)cc4)cc3s2)CC1 : False
Cc1nc2sc(C(=O)Nc3cccc4ccccc34)c(N)c2cc1C(=O)/C=C/c1ccccc1 : True
O=C1/C(=C/c2ccc([N+](=O)[O-])o2)Oc2ccc(Br)cc21 : False

The reported measurements were obtained from PubChem BioAssay (NCI).
